Measured melting point, listed per entry.

> print(dat)
              compound.smiles       observed
1  O=C(O)CCCCCCCSc1ccc(Cl)cc1    92 to 93 °C
2     Cc1ccc(C)c(SCCC(=O)O)c1  100 to 102 °C
3   O=C(O)CCCCCCCSc1ccc(O)cc1    94 to 95 °C

*Q* What measured melting point goes with "O=C(O)CCCSc1ccccc1O" ?
*A* 77 to 78 °C

*Q* Can you handle "O=C(O)CCCCCSc1ccc(O)cc1" next?
*A* 92 to 94 °C

*Q* Can you handle "Cc1ccc(C)c(SCCCCCCCC(=O)O)c1" next?
*A* 60 to 63 °C
